Tested on: Saccharomyces cerevisiae
Assay: protein stability index of tFT-peptide fusion in deletion strain of DOA10 (PSI (0-1 scale)); higher = more stable (slower turnover)
So I've got a bunch of sequences here, and I need their protein stability index values.
One number for each entry.

Here is how some sequences turned out for protein stability index.
GLMMCSVGCWFR
0.506
AITLNMCPLLLR
0.662
GMYMCSVGCWFR
0.713

Count: 7. Required value per item: protein stability index.
1. ANTLPMCPLLLR
2. AIVLPMCPLLLR
3. RSLRVALPLYFR
4. AITLPMCPLLLH
5. GLYMCSVGCWFY
6. GAYMCSVGCWFR
7. CLVSLPIPLFFR

### Response
0.649
0.623
0.675
0.621
0.52
0.686
0.643

====

System: Saccharomyces cerevisiae
Assay: protein stability index of tFT-peptide fusion (C-terminal peptide) (PSI (0-1 scale)); higher = more stable (slower turnover)
Conditions: genetic background: wild type; temperature: 30 C
Record criterion met whenever protein stability index is at 0.7 or higher; record criterion not met when lower.

The examples below pair each entry with its known result.
FGSRTFVTIAAG
criterion not met
SFKSCMCLFCGV
criterion not met
CWGEGGRTVING
criterion not met
LVDSSLTESLDV
criterion not met
EGTIDSGRHSLK
criterion met

### Prompt Record GDDGGSGGCVER ; criterion: protein stability index no lower than 0.7. Met?
### Response criterion not met

### Prompt In plain terms: is recorded protein stability index at least 0.7 for SFFRFRIPLFPS ?
### Response criterion not met

### Prompt Could you verify whether the entry GRWRCVYRGCGG shows protein stability index of no less than 0.7?
### Response criterion not met

### Prompt hey, is protein stability index for this one >= 0.7? KEKKQARVKKKK
### Response criterion met

### Prompt Quick check, protein stability index >= 0.7? ESDLNDLGQNLN
### Response criterion not met

### Prompt Threshold query (protein stability index >= 0.7) on IGLTVICHFMNV
### Response criterion not met

### Prompt Is reported protein stability index greater than or equal to 0.7 here: LFVSLLGAFVVG
### Response criterion not met

### Prompt Please tell me: is the sequence LVPPPPPPSPPP at or over 0.7 in terms of protein stability index?
### Response criterion not met

### Prompt Identify whether the reported protein stability index of the following sequence is 0.7 or greater: VLVLVARPLWRI
### Response criterion not met

### Prompt Please tell me: is the sequence CEERGLLPTQYS at or over 0.7 in terms of protein stability index?
### Response criterion not met

### Prompt Evaluate VSVVLKTQRVVC : protein stability index at minimum 0.7?
### Response criterion not met

### Prompt Reported protein stability index at or above 0.7? GAPTPPGAPPPA
### Response criterion not met

### Prompt Has SSGRWLFLPPCP a recorded protein stability index greater than or equal to 0.7?
### Response criterion met

### Prompt Could you please find out whether IFFVLVFFPGFF has protein stability index that meets 0.7 or exceeds it?
### Response criterion not met

### Prompt Say whether ACCIFAFHRSLS shows protein stability index of 0.7 or more.
### Response criterion not met

### Prompt API: above_or_equal(metric=protein stability index, cutoff=0.7) for item GFSSSFAGGLLF
### Response criterion met

### Prompt Kindly determine if protein stability index recorded for PRPPLPPASPPL is above or exactly 0.7.
### Response criterion not met
